# study system: T1, cynomolgus αVβ6 on cells (cynomolgus)
# T1 construct: whole, on cells; also called macaque αVβ6; Mac AVB6
# assay text: FACS, supernatant, HEK-293 transfected with cynomolgus αV and β6
quantity: % Cells Shifted (%)
Give the quantity in %, number only.

Use these answered entries as a reference point.
binder: sc 320 (antibody, V domains shown, lambda light chain) VH: EVQLVESGGGLVKPGGSLRLSCAASGYTFTNYIMHWVRQAPGKGLEWVSSISISSSYIYYADSVKGRFTISRDNAKNSLYLQMNSLRAEDTAVYYCARDPVPLERRDYYYGMDVWGQGTTVTVSS VL: QSVLTQPPSMSAAPGQKVTISCSGSSSNIGNNYVSWYQQLPGTAPKLLIYDNNKRPSGIPDRFSGSKSGTSATLGITGLQTGDEADYYCGTWDSSLSAGVFGGGTKLTVL
units of measure: %
% Cells Shifted: 19
//
binder: sc 133 (antibody, V domains shown, lambda light chain; also called mAb sc 133) VH: QVQLVQSGAEVKKPGASVKVSCKASGYTFTGYYMHWVRQAPGQGLEWMGWINPKSGDTNYAQKFQGRVTLTRDTSTSTAYMELSRLRSDDTAVYYCARRLDVWGQGTTVTVSS VL: QSVLTQPPSVSAAPGQKVTISCSGSSSNIGNNYVSWYQQLPGTAPKLLIYDNNKRPSGIPDRFSGSKSGTSATLGITGLQTGDEADYYCGTWNSSLSAGYVFGTGTKVTV
units of measure: %
% Cells Shifted: 32

Could you now look at the following binder, please?
# input Indicate its recorded % Cells Shifted; the binder in question is sc 264 (antibody, V domains shown, lambda light chain) VH: QVQLQESGPGLVKPSQTLSLTCTVSGGSISSGGYYWSWIRQHPGKGLEWIGYIYYSGRTYNNPSLKSRVTISVDTSKNQFSLKLSSVTAADTAVYYCARVATGRGDYHFYAMDVWGQGTTVTVSS VL: SYELTQPSSVSVSPGQTARITCSGDVLAKKSARWFHQKPGQAPVLVIYKDSERPSGIPERFSGSSSGTTVTLTISGAQVEDEAAYYCYSAADNNLVFGGGTKLTVL
# output 55
